- System: Salmonella typhimurium
- Assay explanation: Antimicrobial activity against Salmonella enterica serovar Typhimurium CS3 with GyrA S83F, D87N, ParC S80I mutation
- Type: functional, Salmonella enterica subsp. enterica serovar Typhimurium

- Compound string: "CC(=O)OCC1=C(C(=O)O)N2C(=O)[C@@H](NC(=O)Cc3cccs3)[C@H]2SC1"
  MIC: "16 µg/mL"
- Compound string: "NC[C@H]1O[C@H](O[C@H]2[C@H](O)[C@@H](O[C@H]3O[C@H](CO)[C@@H](O)[C@H](N)[C@H]3O)[C@H](N)C[C@@H]2N)[C@H](O)[C@@H](O)[C@@H]1O"
  MIC: "< 8 µg/mL"
- Compound string: "CO/N=C(\\C(=O)N[C@@H]1C(=O)N2C(C(=O)O)=C(CSC(=O)c3ccco3)CS[C@H]12)c1csc(N)n1"
  MIC: "1 µg/mL"
- Compound string: "O=C(O)c1cn(C2CC2)c2cc(N3CCNCC3)c(F)cc2c1=O"
  MIC: "16 µg/mL"
- Compound string: "C[C@H]1COc2c(N3CCN(C)CC3)c(F)cc3c(=O)c(C(=O)O)cn1c23.C[C@H]1COc2c(N3CCN(C)CC3)c(F)cc3c(=O)c(C(=O)O)cn1c23.O"
  MIC: "8 µg/mL"
- Compound string: "CN(C)[C@@H]1C(O)=C(C(N)=O)C(=O)[C@@]2(O)C(O)=C3C(=O)c4c(O)cccc4[C@@](C)(O)[C@H]3C[C@@H]12"
  MIC: "> 32 µg/mL"
- Compound string: "O=C(O)c1cn(-c2ccc(F)cc2)c2cc(N3CCNCC3)c(F)cc2c1=O"
  MIC: "16 µg/mL"
- Compound string: "CCn1cc(C(=O)O)c(=O)c2cc(F)c(N3CCNCC3)nc21"
  MIC: "16 µg/mL"

* * *

- Tested on: Salmonella typhimurium
- Assay explanation: Antimicrobial activity against Salmonella enterica serovar Typhimurium CHS14 acrAB::Kan with GyrA D87G mutation
- Type: functional, Salmonella enterica subsp. enterica serovar Typhimurium
Measured MIC by item
Measured property: MIC (µg/mL)

- Compound: "CC(=O)OCC1=C(C(=O)O)N2C(=O)[C@@H](NC(=O)Cc3cccs3)[C@H]2SC1"
  Unit string: "µg/mL"
  Relation qualifier: "<"
  Reading: 2
- Compound: "CN1CCN(c2cc3c(cc2F)c(=O)c(C(=O)O)cn3-c2ccc(F)cc2)CC1"
  Unit string: "µg/mL"
  Relation qualifier: "="
  Reading: 0.03
- Compound: "CN1C[C@@H]2C[C@H]1CN2c1cc2c(cc1F)c(=O)c(C(=O)O)cn2C1CC1"
  Unit string: "µg/mL"
  Relation qualifier: "="
  Reading: 0.03
- Compound: "O=C(N[C@H](CO)[C@H](O)c1ccc([N+](=O)[O-])cc1)C(Cl)Cl"
  Unit string: "µg/mL"
  Relation qualifier: "<"
  Reading: 2
- Compound: "O=C(O)c1cn(C2CC2)c2cc(N3CCNCC3)c(F)cc2c1=O"
  Unit string: "µg/mL"
  Relation qualifier: "<"
  Reading: 0.015
- Compound: "CC1(C)S[C@@H]2[C@H](NC(=O)[C@H](N)c3ccccc3)C(=O)N2[C@H]1C(=O)O"
  Unit string: "µg/mL"
  Relation qualifier: "<"
  Reading: 1
- Compound: "O=C(O)c1cn(-c2ccc(F)cc2)c2cc(N3CCNCC3)c(F)cc2c1=O"
  Unit string: "µg/mL"
  Relation qualifier: "<"
  Reading: 0.015
- Compound: "CO[C@@]1(NC(=O)Cc2cccs2)C(=O)N2C(C(=O)O)=C(COC(N)=O)CS[C@@H]21"
  Unit string: "µg/mL"
  Relation qualifier: "="
  Reading: 1
- Compound: "C[C@@H]1CN(c2c(F)c(F)c3c(=O)c(C(=O)O)cn(C4CC4)c3c2F)C[C@H](C)N1"
  Unit string: "µg/mL"
  Relation qualifier: "="
  Reading: 0.03
- Compound: "COc1c(N2CCNC(C)C2)c(F)cc2c(=O)c(C(=O)O)cn(C3CC3)c12 (stereo not given)"
  Unit string: "µg/mL"
  Relation qualifier: "<"
  Reading: 0.015

* * *

Measured log10 of MIC by item
- System: Salmonella typhimurium
- Assay explanation: Antimicrobial activity against Salmonella enterica serovar Typhimurium CHS38 with GyrA D87G mutation
- Type: functional, Salmonella enterica subsp. enterica serovar Typhimurium
Measured property: log10 of MIC (log10 of the value in µg/mL)

- Molecule: "O=C(O)c1cn(-c2ccc(F)cc2)c2cc(N3CCNCC3)c(F)cc2c1=O"
  log10 of MIC: -0.92
- Molecule: "NC[C@H]1O[C@H](O[C@H]2[C@H](O)[C@@H](O[C@H]3O[C@H](CO)[C@@H](O)[C@H](N)[C@H]3O)[C@H](N)C[C@@H]2N)[C@H](O)[C@@H](O)[C@@H]1O"
  log10 of MIC: 0.90
- Molecule: "C[C@H]1COc2c(N3CCN(C)CC3)c(F)cc3c(=O)c(C(=O)O)cn1c23.C[C@H]1COc2c(N3CCN(C)CC3)c(F)cc3c(=O)c(C(=O)O)cn1c23.O"
  log10 of MIC: -0.92
- Molecule: "CO/N=C(\\C(=O)N[C@@H]1C(=O)N2C(C(=O)O)=C(CSC(=O)c3ccco3)CS[C@H]12)c1csc(N)n1"
  log10 of MIC: -0.30
- Molecule: "COc1c(N2CCNC(C)C2)c(F)cc2c(=O)c(C(=O)O)cn(C3CC3)c12 (configuration not stated)"
  log10 of MIC: -0.92
- Molecule: "O=C(O)c1cn(C2CC2)c2cc(N3CCNCC3)c(F)cc2c1=O"
  log10 of MIC: -1.22
- Molecule: "CO[C@@]1(NC(=O)Cc2cccs2)C(=O)N2C(C(=O)O)=C(COC(N)=O)CS[C@@H]21"
  log10 of MIC: 0.60

* * *

- System: Salmonella typhimurium
- Assay explanation: Antimicrobial activity against Salmonella enterica serovar Typhimurium CS3 gyrA+ with GyrA S83F, D87N, ParC S80I mutation
- Type: functional, Salmonella enterica subsp. enterica serovar Typhimurium
Measured MIC by item
Measured property: MIC

- Compound string: "CN(C)[C@@H]1C(O)=C(C(N)=O)C(=O)[C@@]2(O)C(O)=C3C(=O)c4c(O)cccc4[C@@](C)(O)[C@H]3C[C@@H]12"
  Reading: "> 32 µg/mL"
- Compound string: "CCn1cc(C(=O)O)c(=O)c2cc(F)c(N3CCNCC3)nc21"
  Reading: "0.06 µg/mL"
- Compound string: "CN1C[C@@H]2C[C@H]1CN2c1cc2c(cc1F)c(=O)c(C(=O)O)cn2C1CC1"
  Reading: "0.06 µg/mL"
- Compound string: "C[C@H]1COc2c(N3CCN(C)CC3)c(F)cc3c(=O)c(C(=O)O)cn1c23.C[C@H]1COc2c(N3CCN(C)CC3)c(F)cc3c(=O)c(C(=O)O)cn1c23.O"
  Reading: "0.06 µg/mL"

* * *

- System: Salmonella typhimurium
- Assay explanation: Antimicrobial activity against Salmonella enterica serovar Typhimurium S21 tolC::Kan
- Assay type: functional, Salmonella enterica subsp. enterica serovar Typhimurium
Measured MIC by item
Measured property: MIC

- Molecule: "CCn1cc(C(=O)O)c(=O)c2cc(F)c(N3CCNCC3)nc21 [ENOXACIN]"
  Measured property: "MIC"
  Reading: "< 0.015 µg/mL"
- Molecule: "COc1c(N2CCNC(C)C2)c(F)cc2c(=O)c(C(=O)O)cn(C3CC3)c12 (stereo unspecified) [GATIFLOXACIN]"
  Measured property: "MIC"
  Reading: "< 0.015 µg/mL"
- Molecule: "CO/N=C(\\C(=O)N[C@@H]1C(=O)N2C(C(=O)O)=C(CSC(=O)c3ccco3)CS[C@H]12)c1csc(N)n1 [CEFTIOFUR]"
  Measured property: "MIC"
  Reading: "< 0.12 µg/mL"
- Molecule: "CN1C[C@@H]2C[C@H]1CN2c1cc2c(cc1F)c(=O)c(C(=O)O)cn2C1CC1 [DANOFLOXACIN]"
  Measured property: "MIC"
  Reading: "< 0.015 µg/mL"
- Molecule: "NC[C@H]1O[C@H](O[C@H]2[C@H](O)[C@@H](O[C@H]3O[C@H](CO)[C@@H](O)[C@H](N)[C@H]3O)[C@H](N)C[C@@H]2N)[C@H](O)[C@@H](O)[C@@H]1O [KANAMYCIN]"
  Measured property: "MIC"
  Reading: "> 64 µg/mL"
- Molecule: "CN1CCN(c2cc3c(cc2F)c(=O)c(C(=O)O)cn3-c2ccc(F)cc2)CC1 [DIFLOXACIN]"
  Measured property: "MIC"
  Reading: "< 0.015 µg/mL"
- Molecule: "O=C(N[C@H](CO)[C@H](O)c1ccc([N+](=O)[O-])cc1)C(Cl)Cl [CHLORAMPHENICOL]"
  Measured property: "MIC"
  Reading: "< 2 µg/mL"
- Molecule: "O=C(O)c1cn(C2CC2)c2cc(N3CCNCC3)c(F)cc2c1=O [CIPROFLOXACIN]"
  Measured property: "MIC"
  Reading: "< 0.015 µg/mL"
- Molecule: "CCn1cc(C(=O)O)c(=O)c2ccc(C)nc21 [NALIDIXIC ACID]"
  Measured property: "MIC"
  Reading: "1 µg/mL"
- Molecule: "CC1(C)S[C@@H]2[C@H](NC(=O)[C@H](N)c3ccccc3)C(=O)N2[C@H]1C(=O)O [AMPICILLIN]"
  Measured property: "MIC"
  Reading: "< 1 µg/mL"
- Molecule: "CN(C)[C@@H]1C(O)=C(C(N)=O)C(=O)[C@@]2(O)C(O)=C3C(=O)c4c(O)cccc4[C@@](C)(O)[C@H]3C[C@@H]12 [TETRACYCLINE]"
  Measured property: "MIC"
  Reading: "< 4 µg/mL"
- Molecule: "O=C(O)c1cn(-c2ccc(F)cc2)c2cc(N3CCNCC3)c(F)cc2c1=O [SARAFLOXACIN]"
  Measured property: "MIC"
  Reading: "< 0.015 µg/mL"
- Molecule: "C[C@H]1COc2c(N3CCN(C)CC3)c(F)cc3c(=O)c(C(=O)O)cn1c23.C[C@H]1COc2c(N3CCN(C)CC3)c(F)cc3c(=O)c(C(=O)O)cn1c23.O [LEVOFLOXACIN]"
  Measured property: "MIC"
  Reading: "< 0.015 µg/mL"
- Molecule: "C[C@@H]1CN(c2c(F)c(F)c3c(=O)c(C(=O)O)cn(C4CC4)c3c2F)C[C@H](C)N1 [ORBIFLOXACIN]"
  Measured property: "MIC"
  Reading: "< 0.015 µg/mL"
- Molecule: "CO[C@@]1(NC(=O)Cc2cccs2)C(=O)N2C(C(=O)O)=C(COC(N)=O)CS[C@@H]21 [CEFOXITIN]"
  Measured property: "MIC"
  Reading: "1 µg/mL"
- Molecule: "CC(=O)OCC1=C(C(=O)O)N2C(=O)[C@@H](NC(=O)Cc3cccs3)[C@H]2SC1 [CEPHALOTHIN]"
  Measured property: "MIC"
  Reading: "< 2 µg/mL"
